Data provenance is PubChem BioAssay (NCI).

Assay: NCI Yeast Anticancer Drug Screen. Data for the rad50 strain (AID 155);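 also: 0% = growth of vehicle-only cultures of the same strain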
Details: S. cerevisiae rad50 strain growth inhibition; at 5.0 µM (retest, dose inferred, filed as 0.5); active compounds read high
About 79,000 compounds went through this panel and 15% of them were active in at least one assay; those are over-represented in the sample as a whole.
growth inhibition values, listed per item
ASSAY READOUT: growth inhibition (%)

- MOLECULE: "COc1ccc2nc3c4c(nccc4c2c1)-c1ncccc1C3=O"
  UNITS: "%"
  TEST RESULT: 93
- MOLECULE: "CN(C)c1ccc(/C=C/c2sc3ccc4ccccc4c3[n+]2C)cc1"
  UNITS: "%"
  TEST RESULT: 97
- MOLECULE: "COc1cc(NCc2ccc3nc(N)nc(N)c3c2C)cc(OC)c1OC (tested in a mixture with another compound)"
  UNITS: "%"
  TEST RESULT: 24
- MOLECULE: "CCC(=O)c1cc([N+](=O)[O-])c(Br)s1"
  UNITS: "%"
  TEST RESULT: 99
- MOLECULE: "COc1ccc2c(c1)C(N)=C(c1ccccc1)C2=O"
  UNITS: "%"
  TEST RESULT: 14
- MOLECULE: "OC(CSc1ccccc1)CN1CCN(c2ccc(Cl)cc2)CC1 (configuration not stated)"
  UNITS: "%"
  TEST RESULT: 8
- MOLECULE: "CCc1oc2ccccc2c1C(=O)c1cc(Br)c(O)c(Br)c1"
  UNITS: "%"
  TEST RESULT: 29
- MOLECULE: "S=c1[nH]c2cc(Cl)ccc2s1"
  UNITS: "%"
  TEST RESULT: -21
- MOLECULE: "CCCCN(CCCC)C(=O)C(C)OC(C)=O (configuration not stated)"
  UNITS: "%"
  TEST RESULT: 0
- MOLECULE: "CCOc1ccc2c(c1)/C(=C\\C=C\\C1CC(C)C3CC(OCC)CCC3N1CC)CC(C)N2CC (configuration not stated)"
  UNITS: "%"
  TEST RESULT: -7
- MOLECULE: "CCOc1ccc(Nc2nc3c(s2)C(=O)c2ccccc2C3=O)cc1"
  UNITS: "%"
  TEST RESULT: 78
- MOLECULE: "O=C1c2ccccc2C(=O)c2c(O)c(Cl)cc(O)c21"
  UNITS: "%"
  TEST RESULT: 3
- MOLECULE: "c1ccc(-c2cc3cc4ccccc4cn3c2)cc1"
  UNITS: "%"
  TEST RESULT: 58
- MOLECULE: "Cc1nn(CCO)c(C)c1N=[N+]([O-])c1c(C)nn(CCO)c1C"
  UNITS: "%"
  TEST RESULT: 12
- MOLECULE: "COc1cc(/C=C2\\SC(=S)N(/C=C/c3nc4ccccc4[nH]c3=O)C2=O)cc(OC)c1OC"
  UNITS: "%"
  TEST RESULT: -9
- MOLECULE: "CC(=O)N1CC(=O)NC1=S"
  UNITS: "%"
  TEST RESULT: -10
- MOLECULE: "C/C(=N\\NC(=S)N1CC2CCC(CC2)C1)c1ccccn1"
  UNITS: "%"
  TEST RESULT: 33
- MOLECULE: "O/N=C1\\c2ccccc2-c2ccc(F)cc21"
  UNITS: "%"
  TEST RESULT: 20
- MOLECULE: "Cc1onc(-c2ccccc2)c1C(=O)N/N=C/c1cc(Cl)cc(Cl)c1O"
  UNITS: "%"
  TEST RESULT: 92
- MOLECULE: "C=C1C(=O)C2=CC1CCC(=O)C1(C)CCC(OC(C)=O)C(C)(C)C1CC2O (configuration not stated)"
  UNITS: "%"
  TEST RESULT: 16
- MOLECULE: "O=C1C(=O)c2cccnc2-c2ncccc21"
  UNITS: "%"
  TEST RESULT: 93
- MOLECULE: "c1ccc(C2NCCNC2c2ccccc2)cc1 (configuration not stated)"
  UNITS: "%"
  TEST RESULT: 1
- MOLECULE: "CSc1nc(C)c(C(=O)CCN2CCN(c3ccccn3)CC2)s1"
  UNITS: "%"
  TEST RESULT: -3
- MOLECULE: "O=[N+]([O-])/C(=C/c1ccccc1)c1ccccc1"
  UNITS: "%"
  TEST RESULT: 99
- MOLECULE: "CCCCCCN(CCCCCC)CCCNc1nccc2ccccc12"
  UNITS: "%"
  TEST RESULT: 4
- MOLECULE: "CCOc1ccc(C(C[N+](=O)[O-])Sc2ccccc2N)cc1 (configuration not stated)"
  UNITS: "%"
  TEST RESULT: 36
- MOLECULE: "O=[N+]([O-])CC(O)c1ccccc1 (configuration not stated)"
  UNITS: "%"
  TEST RESULT: 4
- MOLECULE: "CCCCCCCCCCCCCCCC[N+](C)(C)C"
  UNITS: "%"
  TEST RESULT: 53
- MOLECULE: "O=C1C=CC(=O)N1C1CCCCCCCCCCC1"
  UNITS: "%"
  TEST RESULT: 32
- MOLECULE: "NCCCN(CCCN)CCCNCc1c2ccccc2c(CNCCCN(CCCN)CCCN)c2ccccc12"
  UNITS: "%"
  TEST RESULT: 88
- MOLECULE: "Cc1ccccc1N=NC(C#N)C#N"
  UNITS: "%"
  TEST RESULT: 82
- MOLECULE: "Cn1c(COC(=O)NC2CCCCC2)c(COC(=O)NC2CCCCC2)c2ccc3cc(Cl)c(Cl)cc3c21"
  UNITS: "%"
  TEST RESULT: 8
